For each record, write down the corresponding RBC HC50.
- System: Red blood cells
- experiment description: Hemolytic activity (red blood cell lysis assay)
- recorded conditions: hemolysis, 24 h in PBS; unit not given, same scale as MIC50; i not defined
Would you mind answering with just the numeric figure?

response.value for N#CSC1C=CS(=O)(=O)C1 (stereo not shown) (field: RBC HC50) = 2200

compound "Cc1cc2nc(CN)[nH]c2cc1C" , RBC HC50 observed: 2100

# RBC HC50 (compound: Cc1c(C)n(CC(O)CNC2CCCC2)c2c(Cl)cccc12 (stereo not shown) ) is 125

According to the records, this compound "Clc1ccc(Oc2cnns2)c2ncccc12" displays RBC HC50 of 250

---

Record form. Attribute: MIC50. Fill in for each entry.
- Tested on: M. abscessus Bamboo (smooth morphotype)
- experiment description: Growth inhibition dose response against M. abscessus
- Type: cell-based
- recorded conditions: Mycobacteroides abscessus, 72 h; 3 days, max 500 μM

Lab book: MIC50 of "Cc1nc(-c2c[nH]c3ccccc23)cs1" noted as > 500 µM

Query Cc1c(C)n(CC(O)CNC2CCCC2)c2c(Cl)cccc12 (stereo not shown) yields MIC50 of 125 µM

# MIC50 of "Clc1ccc(Oc2cnns2)c2ncccc12" = > 500 µM

Value of MIC50 reported for the molecule "COn1c(-c2ccc(Cl)cc2)nc2ncccc21" is 150 µM

Recorded MIC50 (molecule "Cc1cc2nc(CN)[nH]c2cc1C" ): > 500 µM

Documented MIC50 of "O=C(c1cc2cc(F)ccc2s1)N1CCC1" : > 500 µM

Memo: N#CSC1C=CS(=O)(=O)C1 (stereo not shown) , reported MIC50: > 500 µM

Sample "COc1cccc2sc(S(C)(=O)=O)nc12" ; MIC50 observed: > 500 µM

MIC50 reading for CC1CC(N)=NN1c1ccc(Cl)cn1 (stereo not shown) : > 500 µM

Reported MIC50 for "CCNc1nc(C)nc2sc(CC)cc12" was > 500 µM

---

Can you tell me log10 of CC50 for the items I'm about to list?
- experiment description: MTS cytotoxicity assay, HepG2
- recorded conditions: human, HepG2 cells (ATCC HB.8065)
Hello, just confirming the data are log10 of CC50 with units of µM.

The recorded log10 of CC50 for N#CSC1C=CS(=O)(=O)C1 (stereo not drawn) is 1.88

The recorded log10 of CC50 for entry "Clc1ccc(Oc2cnns2)c2ncccc12" equals 2.30

log10 of CC50 recorded for this compound, "Cc1nc(-c2c[nH]c3ccccc23)cs1" , is 2.70

The recorded log10 of CC50 for entry "Cc1cc2nc(CN)[nH]c2cc1C" equals 2.95

The recorded log10 of CC50 for entry Cc1c(C)n(CC(O)CNC2CCCC2)c2c(Cl)cccc12 (stereo not drawn) equals 1.65

Documented log10 of CC50 of CC1CC(N)=NN1c1ccc(Cl)cn1 (stereo not drawn) : 2.95

The reported log10 of CC50 of the compound "COn1c(-c2ccc(Cl)cc2)nc2ncccc21" was 2.93

---

Give MIC80 for every item shown.
- System: Candida albicans (ATCC 90028)
- experiment description: Antifungal growth inhibition, C. albicans
- Format: cell-based
- recorded conditions: ATCC90028, twofold serial dilution, max 100 μM, 24 h, read-out: C. albicans Growth Inhibition Spectrum (MIC80)

The recorded MIC80 for Cc1c(C)n(CC(O)CNC2CCCC2)c2c(Cl)cccc12 (stereo not shown) is > 100 µM

Please fill in: MIC80 reported for N#CSC1C=CS(=O)(=O)C1 (stereo not shown) = 100 µM

Record "COc1cccc2sc(S(C)(=O)=O)nc12" , field MIC80: > 100 µM

Value of MIC80 reported for the molecule "Cc1cc2nc(CN)[nH]c2cc1C" is > 100 µM

Item: "Cc1nc(-c2c[nH]c3ccccc23)cs1" | MIC80: > 100 µM

Record summary for "CCNc1nc(C)nc2sc(CC)cc12" : reported MIC80 = > 100 µM

get_value(item= "O=C(c1cc2cc(F)ccc2s1)N1CCC1" , readout=MIC80) returns > 100 µM

"COn1c(-c2ccc(Cl)cc2)nc2ncccc21" yielded MIC80 of > 100 µM

Query CC1CC(N)=NN1c1ccc(Cl)cn1 (stereo not shown) yields MIC80 of 100 µM

// sample "Clc1ccc(Oc2cnns2)c2ncccc12" , its MIC80 was > 100 µM

meta.source: paper PMC5013068
